Consider the following compounds; for each one, report its Condition 1 Conversion (%).
# experimental details: Hydrolysis Assay of Example A2, Condition 1 (SGF with pepsin, pH 1.5, 37° C.)
# Assay type: physicochemical
# condition: SGF with pepsin pH 1.5, 37° C., 0.5 mM; time 1 min
One number for each entry, in %.

Example compounds with recorded Condition 1 Conversion (%):
[[record]]
compound = "COc1ccc([C@]23CCN(C)[C@H]2CC2(CC3)OC[C@@H](c3ccccc3)O2)cc1OC (stereo partly shown) [Compound 081]"
property_measured = "Condition 1 Conversion (%)"
endpoint_value = 0

[[record]]
compound = "COc1ccc([C@]23CCN(C)[C@H]2CC2(CC3)OCC(c3cccc([N+](=O)[O-])c3)O2)cc1OC (stereo partly shown) [Compound 113]"
property_measured = "Condition 1 Conversion (%)"
endpoint_value = 0


Please report Condition 1 Conversion (%) for every entry that follows.
1. COc1ccc([C@@]23CC/C(=N/OC(C)(C)OC)C[C@@H]2N(C)CC3)cc1OC [Compound 219]
2. COc1cccc(C2COC3(CC[C@@]4(c5ccc(OC)c(OC)c5)CCN(C)[C@H]4C3)O2)c1 (stereo partly shown) [Compound 111]

A.
1. 100
2. 0

====

# Type: physicochemical
# condition: DI water, 25° C., 0.5 mM, time 30 min
Give Condition 2 Conversion (%) for every item shown.
Numbers only, in %.

[[record]]
compound = "COc1ccc([C@]23CCN(C)[C@H]2CC2(CC3)OCC(COc3ccccc3OC)O2)cc1OC (some centres unmarked)"
property_measured = "Condition 2 Conversion (%)"
endpoint_value = 0

[[record]]
compound = "CCCCC(=O)OC1=C[C@@H]2N(C)CC[C@]2(c2ccc(OC)c(OC)c2)CC1"
property_measured = "Condition 2 Conversion (%)"
endpoint_value = 0

[[record]]
compound = "COc1ccc([C@@]23CCC(=NNC(=O)c4ccc(F)cc4)C[C@@H]2N(C)CC3)cc1OC"
property_measured = "Condition 2 Conversion (%)"
endpoint_value = 22.27


Parameters: items (list). Returns: Condition 2 Conversion (%) for each item.
1. COc1ccc([C@]23CCN(C)[C@H]2CC2(CC3)OCC(C34CC5CC(CC(C5)C3)C4)O2)cc1OC (some centres unmarked)
2. CCC(C)CC(=O)OC1=C[C@@H]2N(C)CC[C@]2(c2ccc(OC)c(OC)c2)CC1 (some centres unmarked)
3. COc1ccc([C@]23CCN(C)[C@H]2CC2(CC3)Oc3ccccc3O2)cc1OC

A.
0
0
0

I have 2 compounds here; please give me Condition 2 Conversion (%) for each one.
1. COc1ccc([C@@]23CCC(=NNC(=O)CCCC(=O)O)C[C@@H]2N(C)CC3)cc1OC
2. COc1ccc([C@@]23CCC(OC(=O)c4ccc(C(F)(F)F)cc4)=C[C@@H]2N(C)CC3)cc1OC

A.
[60, 0]

====

Could you please report measured Mouse Plasma Prodrug (%) for the items listed next?
# experimental details: Plasma Stability Assay of Example A3, mouse plasma
# condition: % of prodrug compound remaining, 37° C., 15 min
One number for each entry, in %.

Example entries and their recorded answers appear below.
[[record]]
structure = "COc1ccc([C@@]23CCC(OC(=O)c4cccc(C)c4C)=C[C@@H]2N(C)CC3)cc1OC"
property_measured = "Mouse Plasma Prodrug (%)"
endpoint_value = 82

[[record]]
structure = "COc1ccc([C@@]23CCC(OC(=O)c4ccc(C#N)cc4)=C[C@@H]2N(C)CC3)cc1OC"
property_measured = "Mouse Plasma Prodrug (%)"
endpoint_value = 5

[[record]]
structure = "C/C=C(\\C)C(=O)OC1=C[C@@H]2N(C)CC[C@]2(c2ccc(OC)c(OC)c2)CC1"
property_measured = "Mouse Plasma Prodrug (%)"
endpoint_value = 2.1

[[record]]
structure = "COc1ccc([C@@]23CCC(OC(=O)C4CC4)=C[C@@H]2N(C)CC3)cc1OC"
property_measured = "Mouse Plasma Prodrug (%)"
endpoint_value = 3.5

[[record]]
structure = "COc1ccc([C@@]23CCC(OC(=O)c4c(C)cccc4C)=C[C@@H]2N(C)CC3)cc1OC"
property_measured = "Mouse Plasma Prodrug (%)"
endpoint_value = 92


Provide Mouse Plasma Prodrug (%) values for the following items, in order.
1. COc1ccc([C@@]23CCC(OC(=O)c4cccc(C(C)(C)C)c4)=C[C@@H]2N(C)CC3)cc1OC
2. COc1ccc([C@@]23CCC(OC(=O)c4ccc(F)cc4)=C[C@@H]2N(C)CC3)cc1OC

A.
11
0
